Catalogue of inhibition values
biological target: Acetylcholine receptor; alpha1/beta1/delta/gamma (Homo sapiens) (UniProt P02708+P07510+P11230+Q07001); test: Inhibition of alpha1beta1gammadelta nAChR (unknown origin) at 10 uM; assay type: protein-complex assay
Answer with the figure and its unit, nothing else.

Check out these entries, answers already filled in.
O=C(c1ccccc1)c1ccc(NC(=O)N2CCNCC2COc2cccnc2)cc1 (racemic) = 10%
COc1ccc2nc(N3CCNC[C@@H]3COc3cccnc3)sc2c1 = 9%

Moving on to the next compound.
Which inhibition is listed for Cl.c1cncc(OC[C@H]2CNCCN2c2nc3ncccc3o2)c1 ? 1%

###

biological target: CYP2C19 (Homo sapiens); assay: Inhibition of CYP2C19 (unknown origin) at 10 uM; format: ADME
Sequence (P33261 whole entry): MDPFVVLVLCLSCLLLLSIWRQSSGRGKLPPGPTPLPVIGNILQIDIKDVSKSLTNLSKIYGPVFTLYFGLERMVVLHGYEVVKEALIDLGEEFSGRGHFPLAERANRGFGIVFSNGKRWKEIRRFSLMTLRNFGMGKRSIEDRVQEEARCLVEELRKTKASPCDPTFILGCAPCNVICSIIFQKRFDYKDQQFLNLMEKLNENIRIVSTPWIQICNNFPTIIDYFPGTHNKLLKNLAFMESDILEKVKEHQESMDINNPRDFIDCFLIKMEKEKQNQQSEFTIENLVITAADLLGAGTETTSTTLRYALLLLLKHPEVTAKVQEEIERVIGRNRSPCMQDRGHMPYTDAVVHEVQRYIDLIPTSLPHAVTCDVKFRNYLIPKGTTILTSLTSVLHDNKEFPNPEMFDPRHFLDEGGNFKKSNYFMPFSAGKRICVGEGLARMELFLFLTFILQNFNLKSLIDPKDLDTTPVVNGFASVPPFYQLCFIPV
Catalogue of inhibition at 10 µM readings, one per entry.
Field format: number, assumed %, no unit text.

Consider the following illustrative entries.
O=C(c1ccccc1)c1ccc(NC(=O)N2CCNCC2COc2cccnc2)cc1 (racemic) = 49
COc1ccc(NC(=O)N2CCNCC2COc2cccnc2)cc1Cl (racemic) = 47
COc1ccc(NC(=O)N2CCNCC2COc2cccnc2)cc1 (racemic) = 17
O=C(Nc1ccc(Br)cc1F)N1CCNCC1COc1cccnc1 (racemic) = 32
Fc1cc(F)c2nc(N3CCNCC3COc3cccnc3)sc2c1 (racemic) = 70
Cc1cc(NC(=O)N2CCNCC2COc2cccnc2)ccc1Br (racemic) = 51

Record lookup: for CYP2C19 (Homo sapiens), what inhibition at 10 µM belongs to COc1ccc2nc(N3CCNC[C@@H]3COc3cccnc3)sc2c1 ? 78
